# target.desc: human ether-à-go-go-related gene (hERG) potassium channel (human);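 further: peak tail current of the secondary pulse compared with the same well before compound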
# Sequence (Q12809 whole entry, looked up): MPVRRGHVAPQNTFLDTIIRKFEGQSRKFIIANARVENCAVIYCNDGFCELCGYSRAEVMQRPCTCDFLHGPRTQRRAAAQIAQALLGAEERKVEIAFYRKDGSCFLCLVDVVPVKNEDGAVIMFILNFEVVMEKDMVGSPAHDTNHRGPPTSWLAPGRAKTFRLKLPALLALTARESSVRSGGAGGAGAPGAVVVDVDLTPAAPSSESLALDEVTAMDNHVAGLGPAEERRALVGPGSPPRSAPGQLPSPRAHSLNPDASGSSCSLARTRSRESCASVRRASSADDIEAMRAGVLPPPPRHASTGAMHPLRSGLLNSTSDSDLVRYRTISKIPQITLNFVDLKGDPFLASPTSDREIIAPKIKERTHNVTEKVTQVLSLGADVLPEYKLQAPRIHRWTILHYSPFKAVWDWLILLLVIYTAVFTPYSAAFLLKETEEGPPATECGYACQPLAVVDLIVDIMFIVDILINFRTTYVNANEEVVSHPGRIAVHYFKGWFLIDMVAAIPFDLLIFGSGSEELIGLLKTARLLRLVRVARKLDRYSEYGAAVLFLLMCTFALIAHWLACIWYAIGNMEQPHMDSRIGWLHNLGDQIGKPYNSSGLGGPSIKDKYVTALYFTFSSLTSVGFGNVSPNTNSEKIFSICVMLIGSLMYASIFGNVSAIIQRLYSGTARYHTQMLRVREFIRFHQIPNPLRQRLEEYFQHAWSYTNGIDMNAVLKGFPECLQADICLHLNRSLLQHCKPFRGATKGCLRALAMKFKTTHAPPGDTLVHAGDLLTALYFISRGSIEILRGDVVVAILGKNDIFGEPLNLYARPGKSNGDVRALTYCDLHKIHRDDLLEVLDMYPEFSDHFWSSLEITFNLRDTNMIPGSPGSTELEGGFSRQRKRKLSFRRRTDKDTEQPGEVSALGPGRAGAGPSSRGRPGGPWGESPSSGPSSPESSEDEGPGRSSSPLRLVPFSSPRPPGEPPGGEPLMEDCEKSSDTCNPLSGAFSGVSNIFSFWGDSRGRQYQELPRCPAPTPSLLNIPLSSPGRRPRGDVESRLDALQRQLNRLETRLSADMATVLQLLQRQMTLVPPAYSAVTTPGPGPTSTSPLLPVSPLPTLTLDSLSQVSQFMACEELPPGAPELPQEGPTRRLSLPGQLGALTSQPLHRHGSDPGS
# method.summary: primary screen, population patch clamp on CHO cells stably expressing hERG; higher = less effect of the substance
Hit rate of the full screen: of about 310,000 compounds, about 14,000 (4.5%) showed an effect of 50% or more. The effect is printed as a negative number. The list comes from a sample in which strong results are over-represented; it also holds close analogues and randomly drawn compounds.
measurement.name: hERG current change (%, negative = inhibition) at 10uM (%)

{"columns": ["molecule", "observed"],
 "data": [
  ["C/C(=N/NC(=O)c1ccncc1)c1ccc2c(c1)OCO2", 13.8],
  ["COc1cccc(CN(C)C(=O)CCNC(=O)c2ccc(Br)cc2)c1", 0.786],
  ["Cc1cc(Br)c(NC(=O)CN(C)CCOc2ccccc2)c(Br)c1", -19.5],
  ["COc1cc(CCC(=O)Nc2ccc(C)c(S(=O)(=O)N3CCCCCC3)c2)cc(OC)c1OC", -6.5],
  ["Cc1cc(C)c(NC(=O)CSc2nnc(CNC(=O)c3ccccc3F)o2)c(C)c1", -6.38],
  ["O=C(Cc1c(F)cccc1Cl)NCCCn1ccnc1", -24.6],
  ["COc1ccccc1Nc1nnc(SCc2cc(=O)n3cc(C)ccc3n2)s1", -12.8],
  ["CS(=O)(=O)N1CCN(c2ccnc3cc(Cl)ccc23)CC1", -78.6],
  ["CCOc1ccc(N2C(=O)CC(N3CCN(c4ccccc4F)CC3)C2=O)cc1 (stereo not drawn)", 6.59],
  ["CCS(=O)(=O)N1CCCC(C(=O)NC2CCC(C)CC2)C1 (stereo not drawn)", 6.05],
  ["CCOc1ccc(N2C(=O)CC(N3CCN(C4CCc5ccccc5C4)CC3)C2=O)cc1 (stereo not drawn)", -71.5],
  ["CCOc1c2ccc(C(=O)NCCCCc3ccccc3)cc2nn1CC", -14.1],
  ["O=C(Nc1ccc2c(c1)OCO2)c1nn(-c2ccccc2)c(=O)c2ccccc12", 11],
  ["O=C(NCCCCCCCCCNC(=O)C(F)(F)F)C(F)(F)F", -4.99],
  ["O=c1[nH]c(SCc2ccccc2)nc2ccsc12", 5.3],
  ["OCC1(Cc2ccc(F)cc2)CCCN(CCCC(F)(F)F)C1 (stereo not drawn)", -22.3],
  ["O=C(Cc1ccccc1)N/N=C/c1cc2c(cc1Cl)OCO2", 1.85],
  ["Cc1ccc(Cl)cc1N1CCN(S(C)(=O)=O)CC1", -5.31],
  ["O=C(O)C1C2C=CC(C2)C1C(=O)N1CCN(C/C=C/c2ccccc2)CC1 (stereo not drawn)", 17.1],
  ["COc1ccc(/C=N/NC(=O)c2c(C)n(C)c3ccc(OC)cc23)c(OC)c1", -14.3],
  ["Cc1ccccc1C(=O)Nc1ccc(C(=O)N/N=C/c2ccc(O)c(Br)c2)cc1", -2.99],
  ["COc1ccc(/C=N/n2c(-c3n[nH]c4c3CCC4)n[nH]c2=S)c(OC)c1OC", 20.7],
  ["CN(C)S(=O)(=O)N1CCN(c2ccnc3cc(Cl)ccc23)CC1", -76.2],
  ["C=CCOc1c(CNc2ccc3[nH]c(=O)[nH]c3c2)cccc1OC", 10.1],
  ["COc1ccc(N2C(=O)CC(N3CCN(C4CCc5ccccc5C4)CC3)C2=O)cc1 (stereo not drawn)", -61.7],
  ["O=c1[nH]c(SCc2ccc(Cl)cc2)nc2ccsc12", -67],
  ["COc1ccc(N2C(=O)CC(N3CCN(c4ccccc4)CC3)C2=O)cc1 (stereo not drawn)", 8.93],
  ["CCOC(=O)C1(CCOc2ccccc2)CCN(Cc2cnc(C)[nH]2)CC1", -48.3],
  ["OCC1(CCc2ccccc2)CCCN(CCCC(F)(F)F)C1 (stereo not drawn)", -51.7],
  ["COc1ccc(Br)cc1CN1C(=O)NC2(CCCCCC2)C1=O", 10.4],
  ["CCC/C=C1/CCCOC(C(=O)NCc2cc(C)n(C)n2)(C(F)(F)F)C1 (stereo not drawn)", 5.48],
  ["COC(=O)N/N=C/c1cc(Cl)cc(Cl)c1OCc1ccc(F)cc1", 3.82],
  ["C=C(C)CC1(NC(C)c2ccccc2)CCCCC1 (stereo not drawn)", 4],
  ["COc1ccc(-c2noc(N3CCC(C(=O)NCc4ccc(F)cc4)CC3)n2)cc1", -20.4],
  ["S=C(NCc1ccco1)Nc1cccc(Cl)c1", -6.16],
  ["CC1(C)Cc2c(sc3nc(-c4cccs4)n(N)c(=O)c23)CO1", -22.5],
  ["O=C(Nc1ncccc1Cl)C(Sc1ccccc1)c1ccccc1 (stereo not drawn)", 8.58],
  ["CC(NC(=O)/C(C#N)=C/c1ccc(Cl)c([N+](=O)[O-])c1)c1ccccc1 (stereo not drawn)", 4.7],
  ["O=[N+]([O-])c1cccc(-c2nnn(C34CC5CC(CC(C5)C3)C4)n2)c1", 5.85],
  ["Cc1ccc(OC(C)C(=O)Nc2cc(C)on2)cc1 (stereo not drawn)", 2.53],
  ["CN(C)c1nc(N)ncc1-c1ccc(Oc2ccccc2)cc1", 18],
  ["CCS(=O)(=O)N1CCN(c2ccnc3cc(Cl)ccc23)CC1", -73.2]
]}

meta.source: paper PMC4336329
